All figures here come from patent US12012417B2.

Tested on: Dengue 1 virus MY97-10245
Assay: High-content imaging cell-based flavivirus immunodetection (HCl-CFI) assay, Dengue 1
Conditions: Dengue virus, A549, 48 h, read-out: Dengue 1 virus MY97-10245 in A549 using HCl [Inhibitor/IC50] Qualified AC50
Counter-ions that a name gives are not always drawn.
readout.name: EC50

Which measured EC50 value corresponds to CC1Cc2c(sc(NC(=O)Cc3ccc(S(N)(=O)=O)cc3)c2C#N)CN1Cc1cccc(F)c1 (stereo not shown) ? > 1 µM

For `CS(=O)(=O)Cc1ccc(CC(=O)Nc2sc3c(c2C#N)CN(Cc2cccc(F)c2)CC3)cc1` then? 0.1 to 1 µM

For CC1Cc2sc(NC(=O)Cc3ccc(S(N)(=O)=O)cc3)c(C#N)c2CN1Cc1cccc(F)c1 (stereo not shown) then? 0.1 to 1 µM

For CC1Cc2sc(NC(=O)Cc3ccc(C(N)=O)cc3)c(C#N)c2CN1Cc1cccc(F)c1 (stereo not shown) then? 0.1 to 1 µM

For `N#Cc1c(NC(=O)Cc2ccc(S(N)(=O)=O)cc2)sc2c1CN(CC1CCCCC1)CC2` then? 0.1 to 1 µM

For `N#Cc1c(NC(=O)Cc2ccc(S(N)(=O)=O)cc2)sc2c1CCN(CC1CCCCC1)CC2` then? > 1 µM

For CC1Cc2sc(NC(=O)Cc3ccc(S(C)(=O)=O)cc3)c(C#N)c2CN1Cc1cccc(F)c1 (stereo not shown) then? 0.1 to 1 µM

For `N#Cc1c(NC(=O)Cc2ccc(S(N)(=O)=O)cc2)sc2c1CN(CC1CCCC1)CC2` then? 0.1 to 1 µM

For `N#Cc1c(NC(=O)Cc2ccc3c(c2)CNS3(=O)=O)sc2c1CN(CC1CCCCC1)CC2` then? 0.1 to 1 µM

For `CNS(=O)(=O)c1ccccc1CC(=O)Nc1sc2c(c1C#N)CN(Cc1cccc(F)c1)CC2` then? 0.1 to 1 µM

For `CC1(C)CS(=O)(=O)c2ccc(CC(=O)Nc3sc4c(c3C#N)CN(CC3CCCCC3)C(C)(C)C4)cc21` then? < 0.1 µM

For `CS(=O)(=O)Nc1ccc(CC(=O)Nc2sc3c(c2C#N)CN(Cc2cccc(F)c2)CC3)cc1` then? 0.1 to 1 µM

For CC1Cc2sc(NC(=O)Cc3ccc(S(N)(=O)=O)cc3)c(C#N)c2CN1CC1CCCC1 (stereo not shown) [Example 59, hydrochloride] then? > 1 µM

For `Cc1cccc(CN2CCc3c(sc(NC(=O)Cc4ccc(S(N)(=O)=O)cc4)c3C#N)C2)c1F` then? 0.1 to 1 µM

For `CC1(C)Cc2sc(NC(=O)Cc3ccccc3)c(C#N)c2CN1CC1CCCCC1` then? 0.1 to 1 µM

For CC1Cc2sc(NC(=O)Cc3ccc(S(N)(=O)=O)cc3)c(C#N)c2CN1CCC1CCCCC1 (stereo not shown) then? 0.1 to 1 µM

====

System: Dengue 1 virus MY97-10245
Assay: High-content imaging cell-based flavivirus immunodetection (HCl-CFI) assay, Dengue 1
Settings: Dengue virus, A549, 48 h, read-out: Dengue 1 virus MY97-10245 in A549 using HCl [Inhibitor/IC50] Qualified AC50
Give measured EC50 for each item. Keep answers brief.

Which measured EC50 value corresponds to CC1Cc2sc(NC(=O)Cc3ccc(S(N)(=O)=O)cc3)c(C#N)c2CN1CC1CCCCC1 (stereo not shown) ? 0.1 to 1 µM

For CC1Cc2sc(NC(=O)Cc3ccc(S(N)(=O)=O)cc3)c(C#N)c2CN1C(C)c1ccccc1 (single isomer, unassigned) then? 0.1 to 1 µM

For `CS(=O)(=O)c1ccc(CC(=O)Nc2sc3c(c2C#N)CCN(Cc2ccc(F)c(F)c2)C3)cc1` then? 0.1 to 1 µM

For `CN(C(=O)Cc1ccc(S(N)(=O)=O)cc1)c1sc2c(c1C#N)CN(CC1CCCCC1)C(C)(C)C2` then? > 1 µM

For `Cc1cccc(CN2CCc3c(sc(NC(=O)Cc4ccc(S(N)(=O)=O)cc4)c3C#N)C2)c1` then? > 1 µM

For `COc1cc(CC(=O)N(C)c2sc3c(c2C#N)CN(CC2CCCCC2)CC3)ccc1S(N)(=O)=O` then? > 1 µM

For `N#Cc1c(NC(=O)Cc2ccc(S(N)(=O)=O)cc2)sc2c1CCN(Cc1cc(Cl)ccc1Cl)C2` then? > 1 µM

====

Tested on: Dengue 3 virus MY05-34640-WT-C6/36
Experiment: High-content imaging cell-based flavivirus immunodetection (HCl-CFI) assay, Dengue 3
Conditions: Dengue virus, A549, 48 h, read-out: Dengue 3 virus MY05-34640-WT-C6/36 in A549 using HCl [Inhibitor/IC50] Qualified AC50
pEC50: −log10 of the molar value.
readout.name: pEC50

Which measured pEC50 value corresponds to `CC1(C)Cc2sc(NC(=O)Cc3ccc(S(N)(=O)=O)cc3)c(C#N)c2CN1CC1CC(F)(F)C1` ? > 7.00

For CC1Cc2sc(NC(=O)Cc3ccc(S(N)(=O)=O)cc3)c(C#N)c2CN1Cc1cc(Cl)ccc1Cl (centres unmarked) then? > 7.00

For `COc1cc(CC(=O)Nc2sc3c(c2C#N)CN(Cc2cccc(F)c2)CC3)ccc1S(C)(=O)=O` then? > 7.00

For `N#Cc1c(NC(=O)Cc2ccc3c(c2)CNS3(=O)=O)sc2c1CN(Cc1cccc(F)c1)CC2` then? > 7.00

For `COc1cc(CC(=O)Nc2sc3c(c2C#N)CN(CC2CCCCC2)CC3)ccc1S(N)(=O)=O` then? > 7.00

For `CS(=O)(=O)c1ccc(CC(=O)Nc2sc3c(c2C#N)CN(Cc2cccc(F)c2)CC3)cc1C#N` then? > 7.00

For `N#Cc1c(NC(=O)Cc2ccc(S(N)(=O)=O)cc2)sc2c1CCN(Cc1cc(Cl)ccc1Cl)C2` then? 6.00 to 7.00

For `COc1cccc(CC(=O)Nc2sc3c(c2C#N)CN(Cc2cccc(F)c2)CC3)c1OC` then? 6.00 to 7.00

====

Tested on: Dengue 1 virus MY97-10245
Assay: High-content imaging cell-based flavivirus immunodetection (HCl-CFI) assay, Dengue 1
Conditions: Dengue virus, A549, 48 h, read-out: Dengue 1 virus MY97-10245 in A549 using HCl [Inhibitor/IC50] Qualified AC50
pEC50: −log10 of the molar value. Structures can show the parent of a compound that is named as a salt.
Give measured pEC50 for each item. Keep answers brief.

Which measured pEC50 value corresponds to CC1Cc2sc(NC(=O)Cc3ccc(S(=O)(=O)NCC4CCCCC4)cc3)c(C#N)c2CN1CC1CCCCC1 (stereo not drawn) ? < 6.00

For CC1Cc2sc(NC(=O)Cc3ccc(S(=O)(=O)NCC4CC(F)(F)C4)cc3)c(C#N)c2CN1CC1CC(F)(F)C1 (stereo not drawn) then? < 6.00

For COCCOc1cc(CC(=O)Nc2sc3c(c2C#N)CN(Cc2cccc(F)c2)C(C)C3)ccc1S(N)(=O)=O (stereo not drawn) then? 6.00 to 7.00

For `N#Cc1c(NC(=O)Cc2ccc3c(c2)CNC3)sc2c1CN(Cc1cccc(F)c1)CC2` then? < 6.00

For `N#Cc1c(NC(=O)Cc2ccc(S(=O)(=O)C(F)F)cc2)sc2c1CN(CC1CCCCC1)CC2` then? > 7.00

For `COC(=O)c1cccc(CN2CCc3c(sc(NC(=O)Cc4ccc(S(C)(=O)=O)cc4)c3C#N)C2)c1` then? < 6.00

For `CCOc1cc(CC(=O)Nc2sc3c(c2C#N)CN(Cc2cccc(F)c2)CC3)ccc1S(N)(=O)=O` then? > 7.00

For `N#Cc1c(NC(=O)Cc2ccc(S(N)(=O)=O)cc2)sc2c1CCN(Cc1ccccc1Cl)C2` then? 6.00 to 7.00

For `COCCOc1cccc(CC(=O)Nc2sc3c(c2C#N)CN(CC2CCCCC2)CC3)c1` then? 6.00 to 7.00

For `CC1(C)Cc2sc(NC(=O)Cc3ccc(S(N)(=O)=O)cc3)c(C#N)c2CN1CC1CC(F)(F)C1` then? 6.00 to 7.00

For `N#Cc1c(NC(=O)Cc2ccc3c(c2)S(=O)(=O)NC3)sc2c1CN(Cc1cccc(F)c1)CC2` then? 6.00 to 7.00

For `Cc1ccc(CN2CCc3c(sc(NC(=O)Cc4ccc(S(N)(=O)=O)cc4)c3C#N)C2)cc1` then? < 6.00

For CC1Cc2sc(NC(=O)Cc3ccc(S(=O)(=O)NCC4CCCC4)cc3)c(C#N)c2CN1CC1CCCC1 (stereo not drawn) then? < 6.00

For `CCOc1cc(CC(=O)Nc2sc3c(c2C#N)CN(CC2CC(F)(F)C2)C(C)(C)C3)ccc1S(N)(=O)=O` then? 6.00 to 7.00

For CC(c1ccccc1)N1CCc2c(sc(NC(=O)Cc3ccc(S(N)(=O)=O)cc3)c2C#N)C1 (stereo not drawn) [Example 90, hydrochloride] then? < 6.00
